Tested on: NCI-H69 (Small Cell Lung Carcinoma)
experimental.details: combination Emax (second highest fraction inhibited in the dose matrix, 72 h); higher = more inhibition; extreme values may be limits of the assay
measured.metric: combination Emax
Answers are plain numbers.

combination Emax for NC1(C(=O)N[C@@H](CCO)c2ccc(Cl)cc2)CCN(c2ncnc3[nH]ccc23)CC1 [Capivasertib] + C[C@@H]1COCCN1C2=NC(=NC(=C2)C3(CC3)[S@](=N)(=O)C)C4=C5C=CNC5=NC=C4 [AZD6738] (first compound max 10 µM, 7x7, partner max 10 µM) ?
0.671

---

Give measured Bliss excess for each item. Keep answers brief.
Tested on: PCI-30 (Head and Neck Carcinoma);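 also: after 72 h of two-drug dosing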
experimental.details: Bliss excess, mean over the matrix (fraction); higher = more synergy
Give bare numbers.

Sample records with Bliss excess:
| compound | Bliss excess |
| --- | --- |
| CC1(C)CCC(CN2CCN(c3ccc(C(=O)NS(=O)(=O)c4ccc(NCC5CCOCC5)c([N+](=O)[O-])c4)c(Oc4cnc5[nH]ccc5c4)c3)CC2)=C(c2ccc(Cl)cc2)C1 [Venetoclax] + Cc1cc2ncnn2cc1Nc1ncc2c(n1)n(C1CCOCC1)c(=O)n2C [AZD7648] (first compound max 1 µM, 7x7, partner max 10 µM) | -0.0545 |
| CN(C)CCCOc1ccc(-c2ccc3ncc4c(c3c2)n(C2CCOCC2)c(=O)n4C)cn1 [AZD0156] + C=CCn1c(=O)c2cnc(Nc3ccc(N4CCN(C)CC4)cc3)nc2n1-c1cccc(C(C)(C)O)n1 [AZD1775] (first compound max 1 µM, partner max 1 µM) | -0.0356 |
| Cc1c2c(nn1C)CSCc1cc(n(C)n1)CSc1cc(c3ccccc3c1)OCCCc1c(C(=O)O)n(C)c3c-2c(Cl)ccc13 [AZD5991] + CCN(CCO)CCCOc1ccc2c(Nc3cc(CC(=O)Nc4cccc(F)c4)[nH]n3)ncnc2c1 [AZD2811] (first compound max 1 µM, 7x7, partner max 1 µM) | 0.0256 |
| CCc1c2c(nc3ccc(O)cc13)-c1cc3c(c(=O)n1C2)COC(=O)[C@]3(O)CC [SN-38] + O=C(c1cc(Cc2n[nH]c(=O)c3ccccc23)ccc1F)N1CCN(C(=O)C2CC2)CC1 [Olaparib] (first compound max 0.3 µM, 7x7, partner max 10 µM) | 0.0572 |
| CN(CCO)CC[C@H](CSc1ccccc1)Nc1ccc(S(=O)(=O)NC(=O)c2ccc(N3CCC([C@@H](O)c4ccccc4-c4ccc(Cl)cc4)CC3)cc2)cc1S(=O)(=O)C(F)(F)F [AZD4320] + CS(=O)(=O)CCNCc1ccc(-c2ccc3ncnc(Nc4ccc(OCc5cccc(F)c5)c(Cl)c4)c3c2)o1 [Lapatinib] (first compound max 1 µM, 7x7, partner max 10 µM) | 0.0067 |
| CCc1c2c(nc3ccc(O)cc13)-c1cc3c(c(=O)n1C2)COC(=O)[C@]3(O)CC [SN-38] + CN(C)CCCOc1ccc(-c2ccc3ncc4c(c3c2)n(C2CCOCC2)c(=O)n4C)cn1 [AZD0156] (first compound max 0.3 µM, 7x7, partner max 1 µM) | -0.0044 |
| CCN(CCO)CCCOc1ccc2c(Nc3cc(CC(=O)Nc4cccc(F)c4)[nH]n3)ncnc2c1 [AZD2811] + C=CCn1c(=O)c2cnc(Nc3ccc(N4CCN(C)CC4)cc3)nc2n1-c1cccc(C(C)(C)O)n1 [AZD1775] (first compound max 1 µM, partner max 1 µM) | 0.0191 |
| NC1(C(=O)N[C@@H](CCO)c2ccc(Cl)cc2)CCN(c2ncnc3[nH]ccc23)CC1 [Capivasertib] + CCN(CCO)CCCOc1ccc2c(Nc3cc(CC(=O)Nc4cccc(F)c4)[nH]n3)ncnc2c1 [AZD2811] (first compound max 10 µM, 7x7, partner max 1 µM) | -0.0595 |
| Cc1nc(-c2cn3c(n2)-c2ccc(-c4cnn(C(C)(C)C(N)=O)c4)cc2OCC3)n(C(C)C)n1 [Taselisib] + O=C(Nc1ccc2[nH]nc(-c3ccncc3)c2c1)[C@@H]1CCN(CC(=O)N2CCN(c3ccc(-c4ncccn4)cc3)CC2)C1 [SCH772984] (first compound max 10 µM, 7x7, partner max 5 µM) | 0.023 |
| Cc1c2c(nn1C)CSCc1cc(n(C)n1)CSc1cc(c3ccccc3c1)OCCCc1c(C(=O)O)n(C)c3c-2c(Cl)ccc13 [AZD5991] + CC1(C)CCC(CN2CCN(c3ccc(C(=O)NS(=O)(=O)c4ccc(NCC5CCOCC5)c([N+](=O)[O-])c4)c(Oc4cnc5[nH]ccc5c4)c3)CC2)=C(c2ccc(Cl)cc2)C1 [Venetoclax] (first compound max 1 µM, 7x7, partner max 1 µM) | -0.0376 |

Required: Bliss excess, one value per compound below.
1. CC1(C)CCC(CN2CCN(c3ccc(C(=O)NS(=O)(=O)c4ccc(NCC5CCOCC5)c([N+](=O)[O-])c4)c(Oc4cnc5[nH]ccc5c4)c3)CC2)=C(c2ccc(Cl)cc2)C1 [Venetoclax] + CS(=O)(=O)CCNCc1ccc(-c2ccc3ncnc(Nc4ccc(OCc5cccc(F)c5)c(Cl)c4)c3c2)o1 [Lapatinib] (first compound max 1 µM, 7x7, partner max 10 µM)
2. CN(CCO)CC[C@H](CSc1ccccc1)Nc1ccc(S(=O)(=O)NC(=O)c2ccc(N3CCC([C@@H](O)c4ccccc4-c4ccc(Cl)cc4)CC3)cc2)cc1S(=O)(=O)C(F)(F)F [AZD4320] + C[C@@H]1COCCN1C2=NC(=NC(=C2)C3(CC3)[S@](=N)(=O)C)C4=C5C=CNC5=NC=C4 [AZD6738] (first compound max 1 µM, 7x7, partner max 10 µM)

1: -0.0457; 2: -0.0223
